Reported hERG current change (%, negative = inhibition) at 10uM is given for each of the following molecules.
molecular target: human ether-à-go-go-related gene (hERG) potassium channel (human, UniProt Q12809); assay: primary screen, population patch clamp on CHO cells stably expressing hERG; higher = less effect of the substance;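 further: peak tail current of the secondary pulse compared with the same well before compound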
Sequence (Q12809 whole entry, looked up): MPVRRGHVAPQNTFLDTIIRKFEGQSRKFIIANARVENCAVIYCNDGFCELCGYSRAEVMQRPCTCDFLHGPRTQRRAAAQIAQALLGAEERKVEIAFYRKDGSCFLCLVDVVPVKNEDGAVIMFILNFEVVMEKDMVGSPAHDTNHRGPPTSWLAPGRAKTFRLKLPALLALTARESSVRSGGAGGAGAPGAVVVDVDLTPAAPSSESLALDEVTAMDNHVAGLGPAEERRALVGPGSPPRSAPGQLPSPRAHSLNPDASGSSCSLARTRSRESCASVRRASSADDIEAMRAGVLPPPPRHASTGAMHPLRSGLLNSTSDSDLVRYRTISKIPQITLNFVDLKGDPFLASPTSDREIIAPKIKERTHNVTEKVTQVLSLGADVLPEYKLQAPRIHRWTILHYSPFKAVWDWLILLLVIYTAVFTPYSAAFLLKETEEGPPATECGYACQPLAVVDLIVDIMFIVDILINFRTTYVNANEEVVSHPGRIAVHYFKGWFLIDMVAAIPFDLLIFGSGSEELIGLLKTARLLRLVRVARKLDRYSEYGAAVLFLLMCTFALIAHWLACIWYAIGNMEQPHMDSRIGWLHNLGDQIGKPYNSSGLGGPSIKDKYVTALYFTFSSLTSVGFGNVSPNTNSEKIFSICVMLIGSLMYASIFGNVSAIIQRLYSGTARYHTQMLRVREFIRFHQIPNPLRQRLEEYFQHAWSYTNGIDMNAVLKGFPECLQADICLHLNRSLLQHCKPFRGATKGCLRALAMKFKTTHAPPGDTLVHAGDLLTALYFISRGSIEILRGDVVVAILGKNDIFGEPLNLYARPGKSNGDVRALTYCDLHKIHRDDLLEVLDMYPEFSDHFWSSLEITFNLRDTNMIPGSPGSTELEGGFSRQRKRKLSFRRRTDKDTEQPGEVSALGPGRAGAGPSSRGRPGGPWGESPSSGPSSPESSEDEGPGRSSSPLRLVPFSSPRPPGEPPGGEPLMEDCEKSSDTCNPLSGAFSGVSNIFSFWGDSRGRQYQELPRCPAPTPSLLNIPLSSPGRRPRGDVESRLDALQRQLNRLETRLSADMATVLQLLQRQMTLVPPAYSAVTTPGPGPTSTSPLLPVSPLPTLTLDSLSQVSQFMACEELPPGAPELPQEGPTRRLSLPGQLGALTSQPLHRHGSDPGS
The campaign covered roughly 310,000 compounds. About 14,000 (4.5%) showed an effect of 50% or more. The effect is printed as a negative number. Only a selection was taken, and strong results are over-represented in it overall.
OBSERVABLE: hERG current change (%, negative = inhibition) at 10uM (%)

- MOLECULE: "O=C(COc1ccccc1O)Nc1ccc(Cl)cc1"
  TARGET UNDER TEST: "human ether-à-go-go-related gene (hERG) potassium channel (human, UniProt Q12809)"
  MEASUREMENT UNITS: "%"
  RECORDED RESULT: 5.23
- MOLECULE: "COc1cccc(/C=N/NC(=O)CN2CC(c3ccccc3)CC2=O)c1O (stereo not shown)"
  TARGET UNDER TEST: "human ether-à-go-go-related gene (hERG) potassium channel (human, UniProt Q12809)"
  MEASUREMENT UNITS: "%"
  RECORDED RESULT: -9.13
- MOLECULE: "Cc1cccc(N2CCN(C(=O)Cn3nc(C)n4cccc4c3=O)CC2C)c1 (stereo not shown)"
  TARGET UNDER TEST: "human ether-à-go-go-related gene (hERG) potassium channel (human, UniProt Q12809)"
  MEASUREMENT UNITS: "%"
  RECORDED RESULT: 1.19
- MOLECULE: "Cc1ccc(S(=O)(=O)N2c3ccccc3CC2C)cc1 (stereo not shown)"
  TARGET UNDER TEST: "human ether-à-go-go-related gene (hERG) potassium channel (human, UniProt Q12809)"
  MEASUREMENT UNITS: "%"
  RECORDED RESULT: 13.4
- MOLECULE: "CC1=CN2C(=NC(=O)CC2(C)C(=O)N(CC(=O)NC2CCCC2)Cc2ccccc2)C=C1 (stereo not shown)"
  TARGET UNDER TEST: "human ether-à-go-go-related gene (hERG) potassium channel (human, UniProt Q12809)"
  MEASUREMENT UNITS: "%"
  RECORDED RESULT: 9.32
- MOLECULE: "CC1CCCCN1C(=O)CCc1nnc(Cc2c[nH]c3ccccc23)o1 (stereo not shown)"
  TARGET UNDER TEST: "human ether-à-go-go-related gene (hERG) potassium channel (human, UniProt Q12809)"
  MEASUREMENT UNITS: "%"
  RECORDED RESULT: 4.94
- MOLECULE: "O=C(C1CCC1)N1CCN(c2ccc(Cl)cc2)CC1"
  TARGET UNDER TEST: "human ether-à-go-go-related gene (hERG) potassium channel (human, UniProt Q12809)"
  MEASUREMENT UNITS: "%"
  RECORDED RESULT: -5.33
- MOLECULE: "CC(C)C(=O)Nc1nnc(SCc2cccc(F)c2)s1"
  TARGET UNDER TEST: "human ether-à-go-go-related gene (hERG) potassium channel (human, UniProt Q12809)"
  MEASUREMENT UNITS: "%"
  RECORDED RESULT: -8.88
- MOLECULE: "CN(C)S(=O)(=O)n1cc(/C=C(\\NC(=O)c2ccccc2Cl)C(=O)N2CCOCC2)c2ccccc21"
  TARGET UNDER TEST: "human ether-à-go-go-related gene (hERG) potassium channel (human, UniProt Q12809)"
  MEASUREMENT UNITS: "%"
  RECORDED RESULT: -7.07
- MOLECULE: "O=c1[nH]c2ccccc2cc1CN(c1ccccc1)S(=O)(=O)c1ccccc1"
  TARGET UNDER TEST: "human ether-à-go-go-related gene (hERG) potassium channel (human, UniProt Q12809)"
  MEASUREMENT UNITS: "%"
  RECORDED RESULT: 0.56
